tested on: Semliki Forest virus; assay: Antiviral activity against Forest virus (SFV); type: functional
MEASUREMENT_TYPE: ED50 (mg/kg)
Unit mg/kg implied. Number only.

Data request: Param readout= ED50; system= Semliki Forest virus; entry= Nc1nc(O)c(Cl)c(-c2ccc(F)cc2)n1 ; returns value.
Data returned: 300

Data request: Try Nc1nc(O)c(I)c(-c2ccc(F)cc2)n1 next.
Data returned: 245

Data request: Try Nc1nc(O)c(Cl)c(-c2cc(F)cc(F)c2)n1 next.
Data returned: 185

Data request: Try Nc1nc(O)c(I)c(-c2cccc(I)c2)n1 next.
Data returned: 125

Data request: Try Nc1nc(O)c(Cl)c(-c2cc(F)ccc2F)n1 next.
Data returned: 165

Data request: Try Nc1nc(O)c(I)c(-c2cc(F)cc(F)c2)n1 next.
Data returned: 230

Data request: Try COc1ccccc1-c1nc(N)nc(O)c1I next.
Data returned: 25

Data request: Try Nc1nc(O)c(I)c(-c2ccncc2)n1 next.
Data returned: 365

Data request: Try Nc1nc(O)c(Br)c(-c2cccnc2)n1 next.
Data returned: 75

Data request: Try Nc1nc(O)c(Cl)c(-c2cccc([N+](=O)[O-])c2)n1 next.
Data returned: 140

Data request: Try Nc1nc(O)c(Br)c(-c2cc(F)ccc2F)n1 next.
Data returned: 165

Data request: Try COc1ccccc1-c1nc(N)nc(O)c1Br next.
Data returned: 15
